Reported values of pEC50 for individual entries
- assayed-target: S1 protein of SARS-CoV-2 (recombinant, construct not stated) (SARS-CoV-2, UniProt P0DTC2 16-685)
- method: ELISA, S1 coated, scFv titrated, anti-Flag HRP
pEC50: −log10 of the molar value.
outcome-measure: pEC50

[[record]]
binder = "2020EP61-A08 scFv (scFv) scFv: QVQLVQSGAEVKKPGASVKVSCKASGYTFTSYYMHWVRQAPGQGLEWMGIINPSGGSTSYAQKFQGRVTMTRDTSTSTVYMELSSLRSEDTAVYYCARESGNYYYDSSGYTFDYWGQGTLVTVSSGGGGSGGGGSGGGGSSYVLTQPLSVSVALGQTARITCGGNNIGSKNVHWYQQKPGQAPVLVIYYDSDRPSGIPERFSGSNSGNTATLTISGTQAMDEADYYCQAWDSSTVVFGGGTKLTVL"
outcome_measure = "pEC50"
measurement = 8.24

[[record]]
binder = "2020EP60-F05 scFv (scFv) scFv: QVQLVESGGGVVQPGGSLRLSCAASGFTFSSYGMHWVRQAPGKGLEWVAVISYDGSNKYYADSVKGRFTISRDNSKNTLYLQMNSLRAEDTAVYYCAKARVALGYFDWLLYDGMDVWGQGTTVTVSSGGGGSGGGGSGGGGSSSELTQPPSVSVSPGQTASITCSGDKLGNKYVFWYQQKPGQSPILVIYQDNRRPSGIPERFSGSNSGNTATLTISGDPAMDEADYYCQAWDSSTVVFGGGTKLTVL"
outcome_measure = "pEC50"
measurement = 8.86

[[record]]
binder = "2020EP54-H01 scFv (scFv, also called 2020EP054-H01) scFv: QVQLVESGGGVVQPGRSLRLSCAASGFTFSSYGMHWVRQAPGKGLEWVAVISYDGSNKYYADSVKGRFTISRDNSKNTLYLQMNSLRAEDTAVYYCAKGRGWYLDYWGQGTLVTVSSGGGGSGGGGSGGGGSNFMLTQPPSVSVSPGQTASITCSGDKLGDKYACWYQQKPGQSPVLVMYEDYKRPSGIPARFSGSNSGNTATLTISRVEGGDEGDYYCQVWDSRGPEVIFGGGTKLTVL"
outcome_measure = "pEC50"
measurement = 7.69

